The reported measurements were obtained from patent US20110105397A1.

Biological target: T1, human corticotrophin releasing hormone receptor type 2 (CRHR2) (human, UniProt Q13324 1-411)
T1 sequence (looked up): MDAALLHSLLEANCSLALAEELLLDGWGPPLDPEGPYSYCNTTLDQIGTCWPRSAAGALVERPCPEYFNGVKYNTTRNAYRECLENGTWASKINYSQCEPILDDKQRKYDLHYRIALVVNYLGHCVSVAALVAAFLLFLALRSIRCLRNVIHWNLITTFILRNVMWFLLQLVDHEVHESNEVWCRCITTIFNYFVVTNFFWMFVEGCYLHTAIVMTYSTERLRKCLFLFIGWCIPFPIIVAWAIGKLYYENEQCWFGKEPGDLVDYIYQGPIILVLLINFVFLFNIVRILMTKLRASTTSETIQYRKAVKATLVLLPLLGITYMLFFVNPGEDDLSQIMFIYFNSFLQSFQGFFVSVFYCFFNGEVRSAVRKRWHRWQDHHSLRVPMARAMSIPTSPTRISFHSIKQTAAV
Experiment: cell-based or functional assay
Where no end group is shown, it is not given here.
MEASURE: pA50

TKFTCSLDVPTNIMNLLFNIAKAKNLRAQAAANAHLMAQI-NH2 [Cys-variant stresscopin-like peptide SEQ ID NO: 6]: 9.07 -log10(M)
TKFTLSLDVPTNIMNLLCNIAKAKNLRAQAAANAHLMAQI (NES-PEG (about 20 kDa) on Cys 18; C-terminal amide (-NH2)) [Pegylated Cys-variant stresscopin-like peptide with NES linker and PEG about 20 kDa SEQ ID NO: 72]: 8.04 -log10(M)
TKFTLSLCVPTNIMNLLFNIAKAKNLRAQAAANAHLMAQI-NH2 [Cys-variant stresscopin-like peptide SEQ ID NO: 9]: 7.8 -log10(M)
TKFTLCLDVPTNIMNLLFNIAKAKNLRAQAAANAHLMAQI-NH2 [Cys-variant stresscopin-like peptide SEQ ID NO: 7]: 7.6 -log10(M)
TKFTLSLDVPTNIMNLLFNIAKAKNLRCQAAANAHLMAQI (NES-PEG MW40000 on Cys 28; C-terminal amide (-NH2)) [Pegylated Cys-variant stresscopin-like peptide, NES-PEG MW40000, SEQ ID NO: 100]: 8.64 -log10(M)
TKFTLSLDVPTNIMNLLFNIAKAKNLRAQCAANAHLMAQI-NH2 [Cys-variant stresscopin-like peptide SEQ ID NO: 31]: 8.02 -log10(M)
CKFTLSLDVPTNIMNLLFNIAKAKNLRAQAAANAHLMAQI-NH2 [Cys-variant stresscopin-like peptide SEQ ID NO: 2]: 8.97 -log10(M)
TKFTLSLDVPTNIMNLLFNIAKAKNLCAQAAANAHLMAQI (NES-PEG (about 20 kDa) on Cys 27; C-terminal amide (-NH2)) [Pegylated Cys-variant stresscopin-like peptide with NES linker and PEG about 20 kDa SEQ ID NO: 81]: 7.83 -log10(M)
TKFTLSLDVPTNIMNLCFNIAKAKNLRAQAAANAHLMAQI-NH2 [Cys-variant stresscopin-like peptide SEQ ID NO: 18]: 8.41 -log10(M)
